- System: MCF7 breast
- Procedure details: NCI tumour cell line growth inhibition, 48 h
Measure: TGI (µM)
Please reply with the bare figure in µM and do not write the unit itself.

1) O=[N+]([O-])c1cc(Cl)c(Cl)c([N+](=O)[O-])c1Cl    3.42

Q: Reported TGI, compound CSc1ccc(C2=NN(C(=O)c3ccc(F)cc3)C(c3ccc(F)cc3)C2)cc1 (stereo not given) : ____
A: 17.9

----------
- System: UACC-257 melanoma
- Procedure details: NCI tumour cell line growth inhibition, 48 h
GI50 values for the compounds below.

Here is how some compounds turned out for GI50.
1. CC12OC(c3ccccc3)=CC(c3ccc(Cl)cc3)=C1C(c1ccccc1)=CC2=O (centres undefined)    49.3 µM
2. O=[N+]([O-])c1cc(Cl)c(Cl)c([N+](=O)[O-])c1Cl    1.56 µM
3. ClCc1cccc(Cn2cnc3c(NC45CC6CC(CC(C6)C4)C5)ncnc32)c1    16 µM
4. Cn1c([N+](=O)[O-])cnc1/C=C1\Oc2ccccc2C1=O    0.682 µM

Q: What value of GI50 has been recorded for this entry: `CCOC(=O)c1cc(C#N)c(=O)n(/N=C(\C)c2ccncc2)c1O`
A: > 100 µM

Q: Next entry: `CC(C)c1ccc(C(=O)Nc2nc3ccc(O)cc3s2)cc1`
A: 1.51 µM

Q: Note, next up: `COc1cc(/C=C/C(=O)CC(=O)/C=C/c2cc(OC)c(OC)c(OC)c2)cc(OC)c1OC`
A: 3.23 µM

Q: Here is the next compound: `O=c1c2cc(Cl)ccc2oc2ccc(OCCCCCN3CCCCC3)cc12`
A: 1.3 µM

Q: Consider next the compound `CN[C@@H](C)C(=O)N[C@H](C(=O)N1CCC[C@H]1C(=O)N[C@H]1c2ccccc2C[C@H]1OCC#CC#CCO[C@@H]1Cc2ccccc2[C@@H]1NC(=O)[C@@H]1CCCN1C(=O)[C@@H](NC(=O)[C@H](C)NC)C1CCCCC1)C1CCCCC1` in the same way.
A: 13.5 µM

----------
Measured TGI of individual entries
- Tested on: OVCAR-8 ovarian
- Procedure details: NCI tumour cell line growth inhibition, 48 h
Where a SMILES comes first, the peptide text is derived from it. The star is where a group is joined. Boc = CC(C)(C)OC(=O)*; OBn = c1ccc(CO*)cc1

Below, each entry is followed by its recorded TGI result.
1. CSc1nc(C)c2c(n1)SCC2    > 10 µM
2. O=C(/C=C/c1ccc(F)cc1)c1ccc(Cl)cc1Cl    > 100 µM
3. O=C1NC(=O)C(Cc2ccccc2)(c2cccnc2)N1 (stereo unspecified)    > 100 µM
4. CCOC(=O)NC(=O)c1cn(CC(=O)NCC(=O)NCC(=O)NCCCN2CCN(CCCNC(=O)CNC(=O)CNC(=O)Cn3cc(C(=O)NC(=O)OCC)c(=O)[nH]c3=O)CC2)c(=O)[nH]c1=O    > 100 µM
5. O=C1c2ccccc2C(=O)N1CCCSc1ccccc1    > 100 µM

Q: Find TGI (OVCAR-8 ovarian) for the entry `CC(=O)[O-].CC(=O)[O-].[Pt+2].c1cscn1.c1cscn1`
A: 71.7 µM

Q: What do we get for `COc1ccc([N+]2=NC(c3ccc([N+](=O)[O-])cc3)=NN(c3ccccc3)C2)cc1` ?
A: > 100 µM

Q: Consider next the molecule CCOC(=O)C(N)C[S][Sn]([CH3])([CH3])[Cl] (stereo unspecified) in the same way.
A: > 100 µM

Q: Lookup CC(C)C(NC(=O)C(Cc1ccccc1)NC(=O)OC(C)(C)C)C(=O)NCC(=O)OCc1ccccc1 (stereo not drawn) (Boc-Phe-Val-Gly-OBn; configuration not given here)
A: 35.6 µM
